system: BT-474 cancer cells; assay: Inhibition of BT-474 cell proliferation (CellTiter-Glo); format: cell-based; details: Homo sapiens, BT-474 cells, 120 hours
Please respond with reported GI50 for every item in the list.

Req: Quick one: GI50 of `C=CC(=O)N1CCC(Oc2cc3c(Nc4cc(Cl)c(Oc5ccn6ncnc6c5)cc4OC)ncnc3cc2OC)CC1` ?
Resp: ≤ 50 nM

Req: Quick one: GI50 of `COc1cc2ncnc(Nc3ccc(Oc4ccn5ncnc5c4)cc3OC)c2cc1NC(=O)/C(F)=C\[C@H]1CCCN1C` ?
Resp: ≤ 50 nM

Req: Quick one: GI50 of `COc1cc2ncnc(Nc3cc(C)c(Oc4ccn5ncnc5c4)cc3OC(F)(F)F)c2cc1NC(=O)/C(F)=C\[C@H]1CCCN1C` ?
Resp: > 500 nM

Req: Quick one: GI50 of `COc1cc2ncnc(Nc3cc(C)c(Oc4ccn5ncnc5c4)cc3OC3CC3)c2cc1NC(=O)/C(F)=C\[C@H]1CCCN1C` ?
Resp: ≤ 50 nM

* * *

system: BT-474 cancer cells; assay: Inhibition of BT-474 cell proliferation (CellTiter-Glo); assay type: cell-based; settings: Homo sapiens, BT-474 cells, 120 hours
Please respond with reported GI50 for every item in the list.

Req: Quick one: GI50 of C=CC(=O)N1CCC(Oc2cc3c(Nc4cc(Cl)c(Oc5cccc(F)c5)cc4OC)ncnc3cc2OC)C(F)C1 (centres unmarked) [Example 6] ?
Resp: ≤ 50 nM

Req: Quick one: GI50 of C=C(C(=O)Nc1cc2c(Nc3cc(C)c(Oc4ccn5ncnc5c4)cc3OC)ncnc2cc1OC)n1cccn1 [Example 147] ?
Resp: 100 to 500 nM

Req: Quick one: GI50 of COc1cc2ncnc(Nc3cc(C)c(Oc4cnc5ccnn5c4)cc3OC)c2cc1NC(=O)/C(F)=C/[C@H]1CCCN1C [Example 80] ?
Resp: ≤ 50 nM

Req: Quick one: GI50 of COc1cc2ncnc(Nc3cc(C)c(Oc4ccn5ncnc5c4)cc3OC)c2cc1NC(=O)/C(F)=C/[C@H]1CCCCN1C [Example 131] ?
Resp: ≤ 50 nM

Req: Quick one: GI50 of COc1cc2ncnc(Nc3cc(C)c(Oc4ccc5cnn(C)c5c4)cc3OC)c2cc1NC(=O)/C(F)=C\[C@H]1CCCN1C [Example 89] ?
Resp: ≤ 50 nM

Req: Quick one: GI50 of COc1cc(Oc2ccn3ncnc3c2)c(C)cc1Nc1ncnc2cc(F)c(NC(=O)/C(F)=C/[C@H]3CCCN3C)cc12 [Example 103] ?
Resp: ≤ 50 nM

Req: Quick one: GI50 of CCOc1cc2ncnc(Nc3cc(C)c(Oc4ccn5ncnc5c4)cc3OC)c2cc1NC(=O)/C(F)=C/[C@H]1CCCN1C [Example 120] ?
Resp: ≤ 50 nM

Req: Quick one: GI50 of COc1cc(Oc2ccn3ncnc3c2)c(C)cc1Nc1ncnc2cc(N3CC(F)(F)C3)c(NC(=O)/C(F)=C/[C@H]3CCCN3C)cc12 [Example 114] ?
Resp: ≤ 50 nM

Req: Quick one: GI50 of COc1cc2ncnc(Nc3cc(N(C)C)c(Oc4ccn5ncnc5c4)cc3OC)c2cc1NC(=O)/C(F)=C\[C@H]1CCCN1C [Example 127] ?
Resp: 100 to 500 nM

Req: Quick one: GI50 of COc1cc2ncnc(Nc3cc(Br)c(Oc4ccn5ncnc5c4)cc3OC)c2cc1NC(=O)/C(F)=C\[C@H]1CCCN1C [Example 140] ?
Resp: ≤ 50 nM

Req: Quick one: GI50 of COc1cc2ncnc(Nc3cc(C4CC4)c(Oc4ccn5ncnc5c4)cc3OC)c2cc1NC(=O)/C(F)=C/[C@H]1CCCN1C [Example 137] ?
Resp: 50 to 100 nM

Req: Quick one: GI50 of COc1cc2ncnc(Nc3cc(C)c(Oc4ccn5ncnc5c4)cc3OC3CC3)c2cc1NC(=O)/C(F)=C/[C@H]1CCCN1C [Example 107] ?
Resp: ≤ 50 nM

Req: Quick one: GI50 of COc1cc2ncnc(Nc3cc(C)c(Oc4ccc5ccccc5c4)cc3OC)c2cc1NC(=O)/C(F)=C/[C@H]1CCCN1C [Example 64] ?
Resp: ≤ 50 nM

Req: Quick one: GI50 of COCCOc1cc2ncnc(Nc3cc(C)c(Oc4ccn5ncnc5c4)cc3OC)c2cc1NC(=O)/C(F)=C\[C@H]1CCCN1C [Example 94] ?
Resp: ≤ 50 nM

* * *

Please respond with reported GI50 for every item in the list.
system: BT-474 cancer cells; experiment: Inhibition of BT-474 cell proliferation (CellTiter-Glo); type: cell-based; settings: Homo sapiens, BT-474 cells, 120 hours

Req: Quick one: GI50 of COc1cc2ncnc(Nc3cc(C)c(Oc4ccn5ccnc5c4)cc3OC)c2cc1NC(=O)/C(F)=C/[C@H]1CCCN1C [Example 76] ?
Resp: ≤ 50 nM

Req: Quick one: GI50 of COc1cc2ncnc(Nc3cc(Cl)c(Oc4cccc(F)c4)cc3OC)c2cc1NC(=O)/C=C/CN(C)C [Example 25] ?
Resp: ≤ 50 nM

Req: Quick one: GI50 of COc1cc2ncnc(Nc3cc(Cl)c(Oc4ccccn4)cc3OC)c2cc1NC(=O)/C=C/[C@H]1CCCN1C [Example 33] ?
Resp: ≤ 50 nM

Req: Quick one: GI50 of C=CC(=O)Nc1cc2c(Nc3cc(C)c(Oc4ccn5ncnc5c4)cc3OC)ncnc2cc1N1CCC(N2CCOCC2)CC1 [Example 22] ?
Resp: 50 to 100 nM
